Assay: Acute oral toxicity, lethal doses 50 (LD50)
Conditions: mouse, in vivo
Counter-ions that a name gives are not always drawn.
LD50 by entry:
Field: numeric (mg/kg). Do not append units.

Examples with answers:
1) O=c1c2ccccc2nnn1CCCN1CCN(c2ccccc2)CC1 [Example 11, hydrochloride] :: 1000
2) O=c1c2ccsc2nnn1CCCN1CCN(c2cccc(Cl)c2)CC1 [Example 23, hydrochloride] :: 1060

Enquiry: // query LD50 value for entry Cl.O=c1n(CCCN2CCN(c3cccc(Cl)c3)CC2)nc2ccccn12 [Trazodone Hydrochloride, reference compound]
Return: 650

Enquiry: // query LD50 value for entry O=c1c2ccccc2nnn1CCCN1CCN(c2cccc(F)c2)CC1 [Example 10, hydrochloride]
Return: 1500

The reported measurements were obtained from patent US4552878A.
